- Test system: Tu686
- test_description: SRB growth inhibition assay, Tu686
- Type: cell-based
- recorded_conditions: Tu686, 72 h, SRB assay

molecule: COc1cc(/C=C/C(=O)/C=C/c2cc(OC)c(O)c(OC)c2)cc(OC)c1O [FLLL12]
IC50 [nM]: 680

* * *

- System: SQCCY1
- test_description: SRB growth inhibition assay, SQCCY1
- Format: cell-based
- recorded_conditions: SQCCY1, 72 h, SRB assay

compound: COc1cc(/C=C/C(=O)/C=C/c2cc(OC)c(O)c(OC)c2)cc(OC)c1O [FLLL12]
IC50, nM: 1550
